Reported IC50 by item:
target: ENPP3 (Homo sapiens, UniProt O14638); test: ENPP3 Km ATP assay; format: biochemical; conditions: ATP at Km
Sequence (O14638 whole entry, species assumed): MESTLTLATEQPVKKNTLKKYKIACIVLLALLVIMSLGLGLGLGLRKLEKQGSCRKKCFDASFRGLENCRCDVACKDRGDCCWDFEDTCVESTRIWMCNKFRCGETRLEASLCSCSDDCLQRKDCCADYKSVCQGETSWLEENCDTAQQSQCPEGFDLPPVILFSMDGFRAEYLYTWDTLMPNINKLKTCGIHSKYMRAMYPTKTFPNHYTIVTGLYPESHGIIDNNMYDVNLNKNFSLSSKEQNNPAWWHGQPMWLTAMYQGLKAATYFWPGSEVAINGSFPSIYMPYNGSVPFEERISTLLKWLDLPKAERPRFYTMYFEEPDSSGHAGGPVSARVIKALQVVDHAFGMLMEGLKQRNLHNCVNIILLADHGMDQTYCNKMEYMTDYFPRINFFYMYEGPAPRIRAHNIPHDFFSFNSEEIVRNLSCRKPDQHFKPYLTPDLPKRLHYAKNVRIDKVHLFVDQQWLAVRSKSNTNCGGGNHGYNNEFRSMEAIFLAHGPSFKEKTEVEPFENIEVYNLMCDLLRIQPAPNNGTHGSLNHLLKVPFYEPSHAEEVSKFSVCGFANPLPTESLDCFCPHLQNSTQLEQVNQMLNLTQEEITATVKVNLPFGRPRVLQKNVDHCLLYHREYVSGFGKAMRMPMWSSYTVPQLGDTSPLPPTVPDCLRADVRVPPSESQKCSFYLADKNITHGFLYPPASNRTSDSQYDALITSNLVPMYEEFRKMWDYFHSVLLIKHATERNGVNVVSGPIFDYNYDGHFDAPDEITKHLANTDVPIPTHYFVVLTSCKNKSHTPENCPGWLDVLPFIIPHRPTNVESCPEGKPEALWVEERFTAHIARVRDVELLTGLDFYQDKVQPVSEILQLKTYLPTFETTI

compound	IC50
Cn1ncc2c(NCc3ccc(S(N)(=O)=O)c(C(F)(F)F)c3)ccnc21	0.1 to 1 µM
Cc1csc2c(N3CCC(NCCOc4ccc(F)cc4)CC3)ncnc12	> 20 µM
NS(=O)(=O)c1ccc(CNc2nc(Cl)nc3c2cnn3CC(F)(F)F)cc1	1 to 20 µM
Cc1nc(N2CCC(NCCCc3ccncc3)CC2)c2scc(C)c2n1	> 20 µM
NS(=O)(=O)c1ccc(CNc2nc(-c3ccccn3)nc3scc(-c4ccccc4)c23)cc1F	0.1 to 1 µM
Cn1ncc2c(NCc3ccc(S(N)(=O)=O)cc3)cnnc21	1 to 20 µM
Cc1csc2c(N3CCC(NCc4ccc(F)cc4)CC3)ncnc12	> 20 µM
Cn1ncc2c(NCc3ccc(S(N)(=O)=O)cc3)nc(N3CCCCC3)nc21	0.1 to 1 µM
COc1ccc(CNc2nc(-c3ccccn3)nc3scc(-c4ccccc4)c23)cc1	> 20 µM
